Data origin, for the record: PubChem BioAssay (NCI)

- System: KM12 colon
- Test Details: NCI-60 one-dose screen, 48 h
- Run Conditions: 10 µM unless noted
Compounds without any hit were thinned out: in the full panel of roughly 83,000, 20% have a hit. Calls of active or inactive are those of the source. The calls were made as follows: active = growth percent below 10; inactive = the rest.
Pick one and only one: true (active), false (inactive)

[Q] Call for entry `Cc1cc(C)n2nc(SCC(=O)Nc3sc4c(c3C(N)=O)CCC4)nc2n1` :
[A] false

[Q] Look up the recorded call for `c1cnc2n[nH]c(Nc3ncnc4c3sc3ncccc34)c2c1` in this test.
[A] false

[Q] Kindly provide the recorded test outcome for the following compound: `C=C(C)[C@@H]1C/C=C(/C=O)CC[C@@H]2O[C@@]2(C)CC/C=C(\C)CC1`
[A] false

[Q] Given `Oc1ccc(-c2nn(-c3ccccc3)cc2-c2nc3ccccc3s2)cc1` , state the outcome it received in this test.
[A] false

[Q] // return assay outcome for CCCCCCCC/C=C/CCCCCCCC1=NC(C)(C)CN1CC(C)O (centres undefined)
[A] true

[Q] Assay outcome for `COc1ccc(CCN2CCCN3C2=Nc2ccccc2S3(=O)=O)cc1` : what was it?
[A] false

[Q] How was `COc1cc(Oc2cc(-c3cccnc3)ccc2NC(=O)Nc2ccc(F)cc2F)cc(OC)c1OC` classified in this test?
[A] false

[Q] Per the assay record, what outcome was assigned to `Nc1ccc(S(=O)(=O)Nc2ncccn2)cc1` ?
[A] false

[Q] Recorded test call requested for `CCCCCCCC/C=C\CCCCCCCCOc1ccccc1CC(=O)NCC[N+]1(C)CCCC1`
[A] false

[Q] So what was the verdict on `COC(=O)[C@]12CC[C@@H](C)[C@H](C)[C@@H]1C1=CC[C@@H]3[C@@]4(C)C[C@@H](OC(=O)c5ccco5)[C@H](O)[C@@](C)(CO)[C@@H]4[C@H](O)C[C@@]3(C)[C@]1(C)CC2` in this test?
[A] true

[Q] Tell me the assay call for `COc1ccc(C(=O)Nc2nc(-c3ccc(Cl)cc3)cs2)cc1` please.
[A] false

[Q] Call for entry O=C(/C=C/c1cccnc1)NCCCCC1CCCN(C(=O)c2ccccc2)C1 (centres undefined) :
[A] false

[Q] Short answer needed: outcome of this test for `O=C1/C(=C/c2ccc([N+](=O)[O-])s2)Oc2ccc(Br)cc21` ?
[A] true

[Q] Call for entry `COc1ccc(-c2cc(C(=O)Nc3nc4cc(C)c(C)cc4s3)nc3cc(-c4ccccc4)nn23)cc1OC` :
[A] false

[Q] What did this assay record as the result for `CCCc1cc(=O)n2c(C(=O)Nc3ccccc3OC)c(C(=O)Nc3ccc(F)cc3)sc2n1` ?
[A] false

[Q] Outcome logged for `COc1cc(/C=C/C(=O)N2CCN(C(=O)/C=C/c3ccccc3)CC2)cc(OC)c1OC` in this assay:
[A] false

[Q] How did this test come out for `Cc1cc2cn3c4cccnc4[nH]c(=O)c3c2cc1C` ?
[A] false

[Q] Outcome logged for CCC(C)CC(C)C(=O)c1c(O)ccn(OC)c1=O (centres undefined) in this assay:
[A] false

[Q] Outcome logged for CC[C@]1(O)CC2CN(CCc3c([nH]c4ccccc34)[C@@](C(=O)OC)(c3cc4c(cc3OC)N(C)[C@H]3[C@@](O)(C(=O)OC)[C@H](OC(C)=O)[C@]5(CC)C=CCN6CC[C@]43[C@@H]65)C2)C1 (some centres undefined) in this assay:
[A] true
